B1: tRNA (parent)
chain: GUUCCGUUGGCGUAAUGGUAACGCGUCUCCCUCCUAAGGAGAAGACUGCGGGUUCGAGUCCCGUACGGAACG

- Variants of: B1
- test_details: yeast fitness, log relative to wild type (ln ratio); higher = fitter; tRNA-Arg(CCU), competitive growth, 37 C, 1 M NaCl
yeast fitness (ln): recorded values
Write the number on its own, no unit after it.

G1A U2G G6U A43C C46U C66U A69G A70U
-0.299
G1A U2G G6U A69G A70U
-0.278
G1A C27U C46U C66U A69G C71U
-0.311
U2G G6U A43C C66U A69G C71U
-0.408
G1A G6A C27U C66U A69G C71U
-0.321
G1A U2C G6U C66A A70G
-0.0212
G1A U2G G6U C46U C66U A70G
-0.238
U2C C27U A70G
-0.0415
G6U A69G A70U C71U
-0.394
G6U C27U A69G
-0.222

INPUT: Look up yeast fitness (ln) for this variant: G1A U2C G6A C66U A70G
OUTPUT: -0.00694

INPUT: Look up yeast fitness (ln) for this variant: G1A U2C G6A C27U C46U C66U A69G A70U C71U
OUTPUT: -0.327

INPUT: Look up yeast fitness (ln) for this variant: G1A U2C G6U A70G
OUTPUT: -0.113

INPUT: Look up yeast fitness (ln) for this variant: U2C C27U A69G C71U
OUTPUT: -0.102
